- Tested on: NCI-H226 lung
- Assay Procedure: NCI-60 one-dose screen, 48 h (100 = growth as untreated, 0 = no growth, -100 = all killed)
- Condition: 10 µM unless noted
About 83,000 compounds went through this panel and 20% of them were active in at least one assay; those are over-represented in the sample as a whole.
Measured Metric: growth (%)
Answers are plain numbers, in %.

>>> readout_value("COc1ccc([C@@H]2[C@@H](O)C(=O)N2c2cc(OC)c(OC)c(OC)c2)cc1")
-7.75
>>> readout_value("C=CCn1c(SCC(=O)Nc2cccc(C(=O)/C=C/c3ccc(Cl)cc3)c2)nc2ccccc2c1=O")
102
>>> readout_value("COc1ccc(Cn2cc3c(c2-c2ccccc2)CCCc2cnoc2-3)cc1[N+](=O)[O-]")
66.6
>>> readout_value("Cn1cc(-c2nn3cc(-c4cccnc4)nc3s2)c2ccccc21")
30.2
>>> readout_value("COc1ccc([C@H]2c3[nH]c4ccccc4c3C[C@@H]3C(=O)N(C4CCN(Cc5ccccc5)CC4)CC(=O)N23)c(OC)c1")
82.3
>>> readout_value("Cc1cc2nc(C(Cl)Cl)nc(-c3ccco3)n2n1")
95.6
>>> readout_value("Cn1nc(Nc2ccccc2)c(C(=O)NN)c1N")
92.5
>>> readout_value("Fc1ccccc1/C=C(/C1=NCCN1)n1cnc2ccccc21")
83.2

Provide reported growth for each item, in the same order as listed.
1. CCCC(=O)NC(c1cccnc1)c1ccc2c(C)ccnc2c1O (stereo not given)
2. NC(N)=NS(=O)(=O)c1ccc(N=NC2C(=O)NN(c3ccccc3)C2=O)cc1 (stereo not given)

1. 17.2
2. 85.6
